The reported numbers originate from the supplement of paper PMC11417369.

Can you tell me gcPBM binding intensity (ln) for the items I'm about to list?
tested on: PfAP2-I AP2 domain 3 (GST-tagged); experiment: gcPBM binding intensity (ln(normalized median fluorescence intensity)); higher = stronger DNA binding
Over roughly 25,000 sequences, “ln(normalized median fluorescence intensity)” has its median near 7.9; the highest 2% begin near 11. Only a selection was taken, and the highest values are over-represented in it overall.
Numbers only.

Please review the following examples before continuing.
TATATATGTATGTATGTACACACAAAAAATGGAATA [CACACA_site9235]
8.05
AGGAGGATGCATATGGCACACATTATGAAACTGTCG [CACACA_site299]
9.11
AATAAAATGAGATGTTGTACAGTTTTGATATATGCA [XGTACX_site3052]
7.96
ATAAATTCATACATTTGTACACAAAAAAAAAAAAAA [XGTACX_site2435]
8.12
CAACAACAAATGAGAAGTACATAAATATTAACAATA [XGTACX_site4625]
7.68
AAAAAAAAAAAAAGTGCACACTTTTAATATAAATAT [CACACA_site3314]
10

For each entry beneath this line, provide reported gcPBM binding intensity (ln).
1. ATATATATATATAGTGCACACTTAAGAATATAAAGA [CACACA_site4771]
2. CATTATTATGATAGTTGTACAATTTTTATAAAAAAT [XGTACX_site4411]
3. ATAATAAATTCTACGCGTACAAAACCATGAACATTA [XGTACX_site7505]
4. AGGGAAAAAAAAAAAGTGCATTTGTATTAAATGAAT
5. ATAATAAAAATAAGAGAATAAAAATGCAATTTAATG [CACACA_negctrl_site878]

[11.5, 7.93, 8.02, 9.9, 7.95]

For each entry beneath this line, provide reported gcPBM binding intensity (ln).
1. TATAAACTTAATTTGAGTACTTAATAATAATTTTGT [XGTACX_site3730]
2. ACATAAATATATGACACACACACATATTATATATAT [CACACA_site3065]
3. GATAATCAGAATGGGGTGCAAAGAAAAAAAAAAAAA

1. 7.38
2. 8.36
3. 10.7

For each entry beneath this line, provide reported gcPBM binding intensity (ln).
1. TATATGTTTTATAGTACACACATAAATGGACATACT [CACACA_site2191]
2. GATTAATACACATTCTTCCGACATAATAAGAAAAAG [GTGCAC_negctrl_site7]
3. AAATAATTAGAAATAGTGCACATAATTAAGGGATAC
4. TTCATATATTATTATGCATGTTCATAAATTATCTAA [TGCATGCA_site896]
5. AAATAACCCACGTGCATGCACTTCAATAACTGAACT

[7.83, 8.04, 11.5, 7.88, 11.3]

For each entry beneath this line, provide reported gcPBM binding intensity (ln).
1. AAAGATGGAGTGATATGTACTGATATATTATTATAT [XGTACX_site6500]
2. ATAAAGAATATAAATACACACTTAAATATATATTAT [CACACA_site6071]

1: 7.62; 2: 7.64

For each entry beneath this line, provide reported gcPBM binding intensity (ln).
1. AAATTAGACTATAATACACACATAAAAAAAAAATCA [CACACA_site7672]
2. GATAAAATGAGACCAGTGCATTATTAGTTGTACACC
3. AAAAAAAAATAATATTGTACACACATAAATTCTTTG [XGTACX_site4315]
4. GGTTATAACCCACATGCACACGTAAATAAATATTAT [CACACA_site5992]
5. GTTAATCACCATGTGGTGCATATAAGGGCATATTAT [GTGCAC_site9748]
6. AATATATAAATTAATACATGCACATATAGAAAGGGA [TGCATGCA_site472]
7. AATATATAATATATATGTACTTATATATAAAAGATA [XGTACX_site7635]

7.79
11.3
7.51
8.77
11
8.7
7.8

For each entry beneath this line, provide reported gcPBM binding intensity (ln).
1. AGAATAATAAAATGGGTGCAATAGTTTTTTTTTTTT [GTGCAC_site9823]
2. TATATACGCAAACACACACACACATACACCCACATA [CACACA_site1724]
3. TTATTTTTCTTTATTGGTACACACGAAAAAAAAATT [XGTACX_site6482]
4. AAACAAAAAAGTAAGAAAAGGGATGATTGGATCCAA [CACACA_negctrl_site1230]
5. TTTTTTTGTTGTTGTTGTACGATATTTTCCTTATCA [XGTACX_site2375]
6. AATAAAAATTTACTTTGTACACATATTAAATTCAAT [XGTACX_site1957]
7. ATATATATATAGTGCACACTTAAGAATATAAAGAGG [CACACA_site1151]

1: 11.2; 2: 8.09; 3: 8.03; 4: 7.35; 5: 7.93; 6: 7.83; 7: 11.5

For each entry beneath this line, provide reported gcPBM binding intensity (ln).
1. AATAATACATCCTTAGTGCAGAAATAAAAATTAAGC [GTGCAC_site9955]
2. TTAAAATCTTGAAAAGTGCATTATCATTTTGTAACG [GTGCAC_site9447]
3. TGAAATAACCCATGTGCATGCACTTCAATAACTGAA [TGCATGCA_site1041]
4. AAATAAAGAATATAAATACACACTTAAATATATATT [CACACA_site4007]

[9.76, 11.4, 9.54, 7.58]
